Assignment: determine reported % inhibition of SMAD7 mRNA expression for the given substances.
Tested on: human SMAD7 mRNA
Test: Dose-dependent inhibition of human SMAD7 mRNA expression in Hep3B cells (Example 3, Study 1 and 2)
Assay type: cell-based
Settings: 2220 nM, electroporation, approximately 16 hours, Study 2
Strand notation (5' to 3'): a small letter for the sugar, then the base; units joined by * are phosphorothioate-linked, units joined directly phosphodiester-linked; [ ] holds rarer units or linkages, { } end groups; capitals alone tell only the bases. k = constrained ethyl (cEt); [5mC] = 5-methylcytosine; d = 2'-deoxy (DNA)
The response must be a number in % with no trailing unit.

What does the data say about its % inhibition of SMAD7 mRNA expression? Entry: 799318 (antisense kG*kT*kG*dG*dA*dT*dT*dT*dG*dA*dA*dA*dA*kG*kG*kG) [compound 799318] 40

What do you get for 799921 (antisense k[5mC]*kT*kA*dA*dT*dT*dA*dG*dT*dG*dA*d[5mC]*dT*kG*kT*kG) [compound 799921] ? 35

What do you get for 799759 (antisense kA*k[5mC]*k[5mC]*dA*dT*dA*dT*d[5mC]*dA*d[5mC]*dT*d[5mC]*d[5mC]*kT*kT*k[5mC]) [compound 799759] ? 44

What do you get for 799708 (antisense k[5mC]*kA*kA*dA*d[5mC]*dT*dT*dG*dT*dG*dG*dT*dA*kA*kA*kA) [compound 799708] ? 35

What do you get for 799624 (kT*kG*kA*dA*dA*dG*dT*dA*d[5mC]*dA*dA*dT*d[5mC]*kT*k[5mC]*k[5mC]; antisense) [compound 799624] ? 50

What do you get for 799168 (antisense kG*k[5mC]*kT*dA*dA*dG*dA*dA*d[5mC]*dA*dG*dT*dG*kT*k[5mC]*kG) [compound 799168] ? 13

What do you get for 799404 (antisense kG*kG*kA*dA*d[5mC]*dA*dT*dT*dT*dA*d[5mC]*d[5mC]*d[5mC]*k[5mC]*kT*kG) [compound 799404] ? 39

What do you get for 798823 (kA*k[5mC]*kA*dG*dT*dA*dG*dA*dG*d[5mC]*d[5mC]*dT*d[5mC]*k[5mC]*k[5mC]*k[5mC]; antisense) [compound 798823] ? 27

What do you get for 830128 (antisense kA*k[5mC]*k[5mC]*dT*d[5mC]*d[5mC]*dG*dA*dG*dG*d[5mC]*dA*d[5mC]*k[5mC]*kA*k[5mC]) [compound 830128] ? 55

What do you get for 799753 (antisense k[5mC]*kG*kT*dG*dA*dG*dT*dA*dA*dA*dT*dT*d[5mC]*kT*kT*kA) [compound 799753] ? 33

What do you get for 799689 (antisense kT*kG*k[5mC]*dT*dA*d[5mC]*dA*dG*dT*dG*dT*d[5mC]*dA*k[5mC]*k[5mC]*kA) [compound 799689] ? 49

What do you get for 830170 (antisense kG*k[5mC]*kT*d[5mC]*dT*dG*dT*dT*dT*dG*dG*dA*d[5mC]*kA*kA*kG) [compound 830170] ? 39

* * *

Tested on: human SMAD7 mRNA
Test: Dose-dependent inhibition of human SMAD7 mRNA expression in Hep3B cells (Example 3, Study 1 and 2)
Format: cell-based
Details: 1250.0 nM, electroporation, approximately 16 hours, Study 1
Strand notation (5' to 3'): a small letter for the sugar, then the base; units joined by * are phosphorothioate-linked, units joined directly phosphodiester-linked; [ ] holds rarer units or linkages, { } end groups; capitals alone tell only the bases. e = 2'-O-(2-methoxyethyl) (MOE); [5mC] = 5-methylcytosine; d = 2'-deoxy (DNA)
Assignment: determine reported % inhibition of SMAD7 mRNA expression for the given substances.
The response must be a number in % with no trailing unit.

What does the data say about its % inhibition of SMAD7 mRNA expression? Entry: 771737 (antisense eT*e[5mC]*eA*eA*eA*dT*dG*dA*dA*d[5mC]*d[5mC]*d[5mC]*dT*dG*dG*eT*eT*eA*eT*eA) [compound 771737] 2

What do you get for 771715 (antisense eA*eG*eT*e[5mC]*eT*d[5mC]*d[5mC]*dG*dA*dG*dT*dT*dA*dT*d[5mC]*e[5mC]*e[5mC]*e[5mC]*eA*eT) [compound 771715] ? 18

What do you get for 771838 (antisense eG*eA*eA*e[5mC]*eT*d[5mC]*d[5mC]*dT*dG*d[5mC]*dA*dG*dG*dA*dT*eG*eA*eG*eG*eG) [compound 771838] ? 24

What do you get for 771570 (antisense eT*eG*eG*eG*eA*d[5mC]*dT*dG*d[5mC]*dA*dA*dA*d[5mC]*d[5mC]*dT*e[5mC]*eT*e[5mC]*eT*eG) [compound 771570] ? 0

What do you get for 771705 (antisense eA*eA*eT*eG*e[5mC]*d[5mC]*d[5mC]*dT*dT*dT*dG*dA*dG*dT*dT*eT*e[5mC]*e[5mC]*e[5mC]*e[5mC]) [compound 771705] ? 0
